src = PubChem BioAssay AID1918949

# Test system: K24384-001-R-PDC complex spheroid viability;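 also: spheroids exposed to agents for seven days before luminescence viability reading; 100% = DMSO vehicle control viability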
# Procedure Details: Anticancer human tumor K24384-001-R-PDC patient-derived pancreatic adenocarcinoma cell line growth inhibition
# Applied Conditions: second compound 0.316 µM; first compound 0.000949 µM; stronger effect = lower value
I'd be grateful if you could share measured viability, T/C for these entries.
Give bare numbers, in %.

Some entries whose results are on file:
| Compound | viability, T/C (%) |
| --- | --- |
| CCc1c2c(nc3ccc(O)cc13)-c1cc3c(c(=O)n1C2)COC(=O)[C@]3(O)CC + NC1CCC(NC2CC2c2ccccc2)CC1 | 46.2 |
| CCc1c2c(nc3ccc(O)cc13)-c1cc3c(c(=O)n1C2)COC(=O)[C@]3(O)CC + NC1CC1c1ccc(-c2cccc(O)c2)cc1 | 34.2 |
| Nc1ncn(C2CC(O)C(CO)S2)c(=O)n1 (stereo unspecified) + NC1CC1c1ccc(-c2cccc(O)c2)cc1 | 102 |
| Nc1ccn(C2OC(CO)C(O)C2(F)F)c(=O)n1 (stereo unspecified) + NC1CC1c1ccc(-c2cccc(O)c2)cc1 | 87.9 |
| Nc1ccn(C2OC(CO)C(O)C2(F)F)c(=O)n1 (stereo unspecified) + NC1CCC(NC2CC2c2ccccc2)CC1 | 73.9 |

Moving on to another compound below.
Q: # viability, T/C lookup, item Nc1ncn(C2CC(O)C(CO)S2)c(=O)n1 (stereo unspecified) + NC1CCC(NC2CC2c2ccccc2)CC1
Ans: 97.4
